# Test system: CAKI-1 renal
# test: NCI-60 one-dose screen, 48 h (100 = growth as untreated, 0 = no growth, -100 = all killed)
# experimental_context: 10 µM
The panel holds about 83,000 compounds, 20% with a hit somewhere; the sample as a whole holds those more often.
growth listing for selected molecules.
endpoint_name: growth (%)

molecule	value_reported
Cc1cc(/C=C/c2ccc3cc(N(C)C)ccc3[n+]2C)c(C)n1-c1ccccc1	-31
Cc1ccncc1C(N)=O	64.4
O=C1C=C(O)C(=O)C=C1O	97.4
Cc1nc2c(ccc3ccccc32)s1	103
c1ccc(/C(=N\N=C(/c2ccccc2)c2cccs2)c2cccs2)cc1	89.9
O=C1NC(=O)C2C(=O)NC(=O)C1C21CCc2ccccc21 (configuration not stated)	77.7
Cc1cccc(CO)c1	100
CCN=c1cc2sc3cc(NCC)c(C)cc3nc-2cc1C	-56
COC(=O)C(O)c1ccccc1 (configuration not stated)	114
OC1CCCc2ccccc21 (configuration not stated)	121
c1csc(-c2cc(-c3cc(-c4cccs4)[nH]n3)n[nH]2)c1	79.6
CCN(CC)CCNc1ccc(CO)c2sc3ccccc3c(=O)c12	43.2
O=C(O)C(c1ccccc1)C(O)c1ccccc1 (configuration not stated)	100
O=C(NCCNC(=O)c1ccc(Cl)cc1Cl)c1ccc(Cl)cc1Cl	84.4
CC(=O)c1ccc(C(C)(C)C)cc1	92.7
CCOC(=O)c1[nH]c(C)c(C(=O)O)c1C	97.3
OCC(O)C(O)C(O)C(O)/C=N/O (configuration not stated)	104
O=C(O)CSCSCC(=O)O	96.9
CC(=Nc1ccccc1)C1=C(O)C(Cc2cccc(F)c2)NC1=O (configuration not stated)	37.2
CC1=NN(c2ccccc2)C(=O)/C1=C\N1CC(=O)NC1=S	98
O=C(NC1CCCCC1)OCc1c(COC(=O)NC2CCCCC2)c(-c2ccc(Cl)c(Cl)c2)n2c1CCC2	8.84
COc1ccc(-c2cc3c(nn2)-c2ccccc2C3=O)cc1	28.9
COC(=O)/C=C/C(=O)NC(N)=O	99.2
Nc1nc(OCc2ccccc2)c2[nH]cnc2n1	74
CC1=C(/C=C/C(C)=C/C=C/C(C)=C/CO)C(C)(C)CCC1	88.6
CN(C)/N=C/c1ccccc1O	96.1
C/C(=C\c1ccc([N+](=O)[O-])cc1)C(=O)O	95.6

FYI, the data here is from PubChem BioAssay (NCI).
